tested on: MCF7; experiment: Cytotoxicity against human MCF7 cells incubated for 72 hrs by resazurin staining based microplate reader assay; format: functional
Below is a list of entries, each paired with its recorded LD99 value.
Result Type: LD99

{"columns": ["Entry Smiles", "Result Type", "Test Result"],
 "data": [
  ["CCCCCCC/C=C/C1=CC(=O)[C@]2(O1)C(=O)N[C@@](C)(O)[C@H]2O", "LD99", ">100 µM"],
  ["CN[C@@H]1C[C@H]2O[C@@](C)([C@@H]1OC)n1c3ccccc3c3c4c(c5c6ccccc6n2c5c31)C(=O)NC4", "LD99", "54 µM"],
  ["COC(=O)c1oc(=O)c2c(O)c3c(O)c(C(C)=O)oc3cc2c1O", "LD99", ">100 µM"],
  ["COC(=O)c1oc(=O)c2c(O)c(C(=O)O)c(O)cc2c1O", "LD99", ">100 µM"]
]}
